experimental target: EP4 receptor (Homo sapiens, UniProt P35408)
Construct: BT549 breast cancer cells, express high endogenous EP4 levels and very low EP2 levels
Sequence (P35408 whole entry): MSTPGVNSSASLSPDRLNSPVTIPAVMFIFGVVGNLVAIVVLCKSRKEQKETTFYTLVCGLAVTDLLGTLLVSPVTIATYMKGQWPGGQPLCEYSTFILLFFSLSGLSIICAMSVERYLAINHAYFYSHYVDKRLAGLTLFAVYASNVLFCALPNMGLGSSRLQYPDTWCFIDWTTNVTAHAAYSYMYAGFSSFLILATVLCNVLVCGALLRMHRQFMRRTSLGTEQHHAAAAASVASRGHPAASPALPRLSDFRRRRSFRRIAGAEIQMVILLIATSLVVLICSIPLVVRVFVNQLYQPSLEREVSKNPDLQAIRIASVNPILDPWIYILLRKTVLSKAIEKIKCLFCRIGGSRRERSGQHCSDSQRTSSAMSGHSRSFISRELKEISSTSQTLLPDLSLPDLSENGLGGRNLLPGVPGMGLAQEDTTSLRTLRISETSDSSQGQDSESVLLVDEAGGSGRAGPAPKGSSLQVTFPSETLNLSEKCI
assay summary: hEP4 cAMP assay (BT549 breast cancer cells, HTRF cAMP, PGE2 stimulation)
test parameters: antagonistic activity, PGE2 6 nM (EC80)
Protocol: The antagonistic activities of the compounds of formula (I) on the EP2 and EP4 receptors are also determined in accordance with the following experimental method. Human tumor cell lines expressing endogenously either EP4 or EP2 are used and cAMP accumulation in cells upon PGE2 stimulation is monitored. […] The obtained Delta F(fluorescence) values (665 nm/620 nM) are converted into % cAMP values using the measurements of the cAMP calibrator provided in the kit. […]
Criterion: IC50 strictly under 100 nM. Met: Satisfied. Not met: Not satisfied.

A selection of reference data follows.
{"molecule": "CCOc1cc(-c2cc(NCCc3c(C)sc4c(C)cc(F)cc34)ncn2)sc1-c1noc(=O)[nH]1 [Example 159]", "assigned label": "Satisfied"}
{"molecule": "CCOc1cc(-c2cc(NCCc3c(C)oc4c(C)cc(F)cc34)ncn2)sc1C(=O)O [Example 37]", "assigned label": "Satisfied"}

Field: below-cutoff. Rule: recorded IC50 strictly less than 100 nM. Subject: Cc1sc2c(C)cc(F)cc2c1CCNc1cc(-c2cc(OCCO)c(C(=O)O)s2)ncn1 [Example 41]
Satisfied

Determine if CCOc1cc(-c2cc(NCCc3c(Cl)sc4c(C)cc(F)cc34)ncn2)ccc1C(=O)O [Example 59] shows IC50 strictly lower than 100 nM.
Not satisfied

Is 100 nM strictly greater than the molecule's reported IC50? molecule: O=C(O)c1ccc(-c2cc(NCCc3csc4ccccc34)ncn2)cc1OC1CCC1 [Example 132]
Not satisfied

Here's an entry: Cc1sc2c(C)cc(F)cc2c1CCNc1cc(-c2ccc(C(=O)O)c(O)c2)ncn1 [Example 10] . Is its IC50 below 100 nM?
Not satisfied

hey, is IC50 for CCOc1cc(-c2cc(NCCc3c(C)sc4c(OC)ccc(F)c34)ncn2)ccc1CC(=O)O [Example 105] lower than 100 nM or not?
Not satisfied

Please state whether IC50 is below 100 nM for COc1cc(Cl)cc2c(CCNc3cc(-c4ccc(C(=O)O)c(OC5CC5)c4)ncn3)c(C)oc12 [Example 83]
Not satisfied

###

experimental target: PTGER4 (EP4) (Homo sapiens)
Construct: host or cells: HEK 293 (PathHunter PTGER4 b-arrestin cell line)
assay summary: hEP4 b-arrestin assay (PathHunter HEK 293 PTGER4 b-arrestin cells)
Type: cell-based
test parameters: antagonistic activity, beta-arrestin assay; read-out: hEP4 b-arr IC50
As shown below, each of these compounds has a reported IC50 value.
# unit: µM | format: bare number

{"smiles entry": "Cc1sc2c(C)cc(F)cc2c1CCNc1cc(-c2cc(C(F)(F)F)c(C(=O)O)s2)ncn1", "IC50 [µM]": 0.093}
{"smiles entry": "COc1cc(F)c(F)c2c(CCNc3cc(-c4ccc(C(=O)O)c(OC5CC5)c4)ncn3)c(C)oc12", "IC50 [µM]": 0.374}
{"smiles entry": "COc1cc(-c2cc(NCCc3c(C#N)sc4ccccc34)ncn2)ccc1CC(=O)O", "IC50 [µM]": 0.723}

Next:
Hello, please tell me recorded IC50 for this one: Cc1sc2c(C)cc(F)cc2c1CCNc1cc(-c2ccc(-c3c(O)c(=O)c3=O)cc2)ncn1
0.12

src = patent US11325899B2
